Biological target: T1, StrepII-tagged Mesothelin (human mesothelin isoform 2, NP_037536, with C-terminal strepII-tag) (human, UniProt Q13421-1 296-606, limits assumed)
T1 construct: also called Mesothelin-strep; soluble antigen
T1 sequence (Q13421 other isoform, or with tags, fused parts or gaps limits assumed): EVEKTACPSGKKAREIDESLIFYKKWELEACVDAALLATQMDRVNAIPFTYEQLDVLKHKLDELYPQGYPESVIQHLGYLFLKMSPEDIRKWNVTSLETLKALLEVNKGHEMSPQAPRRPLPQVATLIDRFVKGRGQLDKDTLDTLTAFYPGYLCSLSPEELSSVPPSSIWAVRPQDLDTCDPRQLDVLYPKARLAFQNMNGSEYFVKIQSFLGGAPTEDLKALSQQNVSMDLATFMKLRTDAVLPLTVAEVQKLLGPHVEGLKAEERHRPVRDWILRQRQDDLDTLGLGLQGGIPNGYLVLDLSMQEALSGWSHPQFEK
Experiment: ELISA of 293T supernatant on coated Mesothelin, normalized to IgG titer and given relative to parental mAb MN
QUANTITY MEASURED: binding (% of parental)

Answered cases to consult:
1) huMN5-2 (antibody, V domains shown, No sheet says in words that huMN5a is huMN5-2) VH: QVQLQQSGAELVKPGASLKLSCKASGYTFTSYWMHWVRQAPGQGLEWIGAIHPNSDNTIYYQKFKSRFTITVDKSTSTAYMQLSSLTSEDTAVYYCAIIITPVVPKFDYWGQGTTVTVSS VL: DIVMTQSSSFMSASVGDRVSITCKASHDVGTSLAWYQQKPGQSPKLLIYWASTRQTGVPDRFSGSGSGTDFTLTISSVQSEDVATYFCQQYSSYPLTFGQGTKLEIK : 84.9 % of parental
2) huMN3-1 (antibody, V domains shown) VH: QVQLQQSGAELVKPGASMKLSCKASGYTFTSYWMHWVRQAPGQGLEWIGAIHPNSDNTIYYQKFKSRVTLTVDKSISTAYMQLSSLTSEDTAVYYCAIIITPVVPKFDYWGQGTTVTVSS VL: DIQMTQSPSFLSASVGDRVTITCRASHDVGTSLAWYQQKPGQAPKLLIYWASTLQTGVPSRFSGSGSGTEFTLTISSLQPEDFATYYCQQYSSYPLTFGPGTTVDMK : 111 % of parental
3) huMN5-3 (antibody, V domains shown, No sheet says in words that huMN5b is huMN5-3) VH: QVQLQQSGAELVKPGASLKLSCKASGYTFTSYWMHWVRQAPGQGLEWIGAIHPNSDNTIYYQKFKSRFTITVDKSTSTAYMQLSSLTSEDTAVYYCAIIITPVVPKFDYWGQGTTVTVSS VL: DIVMTQSPDSLAVSLGERATITCKSSHDVGTSLAWYQQKPGQPPKLLIYWASTRESGVPDRFSGSGSGTDFTLTISSLQAEDVAVYYCQQYSSYPLTFGQGTKLEIK : 82.4 % of parental

Attention now turns to another entry.
What binding (% of parental) value was documented for this binder, parental anti-Mesothelin mouse mAb MN, produced as chimeric full-length IgG1 antibody with human constant regions (antibody, V domains shown, also called VH-MN (parental mouse); parental chimeric antibody) VH: QVQLQQPGAELVKPGASMKLSCKASGYTFTSYWMHWVKQRPGQGLEWIGMIHPNSDNTIYYEKFKSKATLTVDKSSSTAYMQLSSLTSEDSAVYYCAIIITPVVPKFDYWGQGTTLTVSS VL: DIVMTQSHQFMSTSVGDRVSVTCKASHDVGTSVAWYQQKPGQSPKLLIYWASTRHTGVPDRFTGSGSGTDFTLTISNVQSEDLADYFCQQYSSYPLTFGAGTKLELK ?
100 % of parental
